Attribution: paper PMC9482650

- assayed target: T1, TIAM2, Q8IVF5
- T1 sequence (Q8IVF5 885-986, limits assumed, looked up): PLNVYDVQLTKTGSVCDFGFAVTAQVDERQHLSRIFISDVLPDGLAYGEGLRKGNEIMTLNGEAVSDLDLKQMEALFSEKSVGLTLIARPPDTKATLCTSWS
- test name: holdup assay
- Set-up: key: below the threshold = too weak to quantify, mostly under pKd 3.1 to 4
- condition parameters: plain residues with an end cap or a label only (N-terminal biotin on a linker: ado-ado)
outcome measure: pKd

[[record]]
binder = "KKMLQRRTLL [OR8G1, Q15617]"
outcome_measure = "pKd"
reported_result = "below the threshold"

[[record]]
binder = "PSVGSKKTVL [REELD1, A0A1B0GV85]"
outcome_measure = "pKd"
reported_result = "below the threshold"

[[record]]
binder = "LAHVKHKEQI [AQP3, Q92482]"
outcome_measure = "pKd"
reported_result = "below the threshold"

